studySystem: T1, human CD3 (human, UniProt P07766 23-207; P04234 22-171; P09693 23-182)
T1 construct: whole, on cells; also called hCD3; CD3 on Jurkat cells
T1 sequence (P07766 23-207, chain 1 of 3): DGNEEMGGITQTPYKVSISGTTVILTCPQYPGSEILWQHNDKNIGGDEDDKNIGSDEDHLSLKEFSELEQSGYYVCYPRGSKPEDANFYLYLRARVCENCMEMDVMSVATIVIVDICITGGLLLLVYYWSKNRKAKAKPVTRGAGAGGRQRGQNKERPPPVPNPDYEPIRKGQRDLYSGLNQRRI
T1 sequence (P04234 22-171, chain 2 of 3): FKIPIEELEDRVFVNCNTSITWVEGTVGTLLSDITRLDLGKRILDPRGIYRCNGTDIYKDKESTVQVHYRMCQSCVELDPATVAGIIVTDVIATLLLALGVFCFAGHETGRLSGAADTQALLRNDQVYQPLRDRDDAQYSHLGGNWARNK
T1 sequence (P09693 23-182, chain 3 of 3): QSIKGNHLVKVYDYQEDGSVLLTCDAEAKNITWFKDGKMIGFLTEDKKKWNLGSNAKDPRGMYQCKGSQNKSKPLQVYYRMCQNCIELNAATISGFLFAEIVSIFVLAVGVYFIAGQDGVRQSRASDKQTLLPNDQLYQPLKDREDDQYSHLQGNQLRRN
assayText: FACS on Jurkat cells
reportedProperty: Top signal
Could you respond with only the numeric value?

ch147E11E2 (antibody, V domains shown) VH: QVQLQQPGTELVKPGTSVKLSCKASGYTFTSYWMHWVKQRPGQGLEWIGNINPSNGATNYNEKFKSKATLTVDKSSSTAYMQLSSLTSEDSAVYYCARDRSSQYYFDYWGQGTTLTVSS VL: DIVMSQSPSSLAVSAGEKVTMSCKSSQSLLNSRSRKNYLAWYQQKPGQSPKLLIYWASTRESGVPDRFTGSGSGTDFTLTISSVQAEDLAVYYCTQSYTLRTFGGGTKLEIK :: 2780
BMK-B219 (antibody, V domains shown, benchmark anti-CD3 antibody; also called anti-CD3 antibody developed by JNJ (Johnson & Johnson)) VH: EVQLVESGGGLVQPGGSLRLSCAASGFTFNTYAMNWVRQAPGKGLEWVARIRSKYNNYATYYAASVKGRFTISRDDSKNSLYLQMNSLKTEDTAVYYCARHGNFGNSYVSWFAYWGQGTLVTVSS VL: QTVVTQEPSLTVSPGGTVTLTCRSSTGAVTTSNYANWVQQKPGQAPRGLIGGTNKRAPGTPARFSGSLLGGKAALTLSGVQPEDEAEYYCALWYSNLWVFGGGTKLTVL :: 3000
ch147C6F3 (antibody, V domains shown) VH: QVQLQQPGTELVKPGASVKLSCKASGYTFDSYWMHWVKQRPGQGLEWIGNLNPSNGEINYNEKFKHKATLTVDKSSSTAYMQLSSLTSEDSAVYYCSRDRSSQYYFDYWGQGTTLTVSS VL: DIVMSQSPSSLAVSAGEKVTLSCKSSQSLLNSRTRKNYLAWYQQKSGQSPKLLMYWASTRESGVPDRFTGSGSGTDFTLTITNVQAEDLAVYYCKQSYILRTFGGGTKLEIK :: 2280

Could you now consider this next binder?
Any idea what its Top signal is? The binder is ch126A11A4 (antibody, V domains shown) VH: QVQLQQPGTELVKPGASVKLSCKASGYTFTSYWMHWVKQRPEQGLEWIGNINPSNGDTNYNEKFKSKATLTVDKASNTAYMQLSSLTSEDSAVYYCGRDRSSQYYFDYWGQGTTLTVSS VL: DIVMSQSPSSLAVSAGEKVTMSCKSSQSLLNSRTRKNYLAWYQQKPGQSPKLLIYWASTRESGVPDRFTGSGSGTDFTLTISSVQAEDLAVYFCKQSFILRTFGGGTKLEIK
1760

Each recorded value in this set is attributed to patent US20250223358A1.
